- Tested System: natural β-amyloid peptide β-AP1-40 (human)
- Sequence (peptide, as listed by the source): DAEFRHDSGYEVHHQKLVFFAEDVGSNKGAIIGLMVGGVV
- Experiment Notes: cell-based or functional assay
Square brackets hold non-standard residues; d marks the D form. Primed or numbered codes have the meaning given here. * marks the point of attachment. Aic′ = 3-(O-aminoethyl-iso)-cholyl, C[C@H](CCC(=O)*)[C@H]1CC[C@H]2[C@@H]3[C@H](O)C[C@@H]4C[C@@H](OCCN)CC[C@]4(C)[C@H]3C[C@H](O)[C@]12C; Cholyl = C[C@H](CCC(=O)*)[C@H]1CC[C@H]2[C@@H]3[C@H](O)C[C@@H]4C[C@H](O)CC[C@]4(C)[C@H]3C[C@H](O)[C@]12C
Experimental Endpoint: % Inucl'n; nucleation assay; 33 mole % (%)
Dear colleague, please return just the value in %, with no unit written.

Which % Inucl'n; nucleation assay; 33 mole % is reported for this binder? H-[Aic′]LVFFA-OH (SMILES CC(C)C[C@H](NC(=O)CC[C@@H](C)[C@H]1CC[C@H]2[C@@H]3[C@H](O)C[C@@H]4C[C@@H](OCCN)CC[C@]4(C)[C@H]3C[C@H](O)[C@]12C)C(=O)N[C@H](C(=O)N[C@@H](Cc1ccccc1)C(=O)N[C@@H](Cc1ccccc1)C(=O)N[C@@H](C)C(=O)O)C(C)C) [h-(Aic)-LVFFA-oh]
100

% Inucl'n; nucleation assay; 33 mole % for Cholyl-LVFFK-OH (SMILES CC(C)C[C@H](NC(=O)CC[C@@H](C)[C@H]1CC[C@H]2[C@@H]3[C@H](O)C[C@@H]4C[C@H](O)CC[C@]4(C)[C@H]3C[C@H](O)[C@]12C)C(=O)N[C@H](C(=O)N[C@@H](Cc1ccccc1)C(=O)N[C@@H](Cc1ccccc1)C(=O)N[C@@H](CCCCN)C(=O)O)C(C)C) [CA-LVFFK-oh] ?
100

// lookup % Inucl'n; nucleation assay; 33 mole % for Cholyl-HQKLVFF-NH2 [CA-HQKLVFF-nh2]
5

# get_value(readout='% Inucl'n; nucleation assay; 33 mole %', item= Cholyl-LVFF-OH [CA-LVFF-oh] )
72
